Each recorded value in this set is attributed to ChEMBL document CHEMBL4689842.

- System: HEK-293T
- procedure-details: Multiplex assay against HEK293T
- Assay type: toxicity, cell-based
- reported-conditions: human, 12 h, 10 µM, compound concentration 10 uM, replicate 1
reported-endpoint: Population Mitochondria Different-Phenotype (%)

1) CN(C)C(=O)N[C@H]1CC[C@H](CCN2CCN(c3cccc(Cl)c3Cl)CC2)CC1.Cl [CARIPRAZINE HYDROCHLORIDE]
98
2) Cn1cc(-c2[nH]c3cc(NC(=O)[C@H](N)C4CCCCC4)cc4c3c2C=NNC4=O)cn1
82
3) CCN(CC)CCCCNc1ncc2cc(-c3cc(OC)cc(OC)c3)c(NC(=O)NC(C)(C)C)nc2n1
6
4) CC[C@H](C)C(=O)O[C@H]1C[C@@H](C)C=C2C=C[C@H](C)[C@H](CC[C@@H]3C[C@@H](O)CC(=O)O3)[C@H]21
89
5) Cc1csc2c(N[C@@H](C)CN3CCN(S(=O)(=O)c4ccc(Cl)c(Cl)c4)CC3)ncnc12
90
6) Cl.N#Cc1ccc2[nH]cc(CCCCN3CCN(c4ccc5oc(C(N)=O)cc5c4)CC3)c2c1 [VILAZODONE HYDROCHLORIDE]
100
7) CN(C)C(=O)/C(C#N)=C/c1ccc(-c2nc3cnc4[nH]ccc4c3n2C2CCCCC2)o1
63
8) CNc1nc(NCc2ccc(NS(C)(=O)=O)cc2Cl)cc(-c2ccccn2)n1
95
9) CN1CCN(c2ccc(OC(F)(F)F)c(Nc3ncc4c(n3)-c3c(c(C(N)=O)nn3CCO)CC4)c2)CC1
98
10) Cc1[nH]c(/C=C2\C(=O)Nc3ccc(S(=O)(=O)N(C)c4cccc(Cl)c4)cc32)c(C)c1C(=O)N1CCN(C)CC1
90
11) CC(C)NCC(O)COc1ccc(CCOCC2CC2)cc1.Cl (stereo not drawn) [BETAXOLOL HYDROCHLORIDE]
100
12) CN1CCC[C@@H]1CCO[C@](C)(c1ccccc1)c1ccc(Cl)cc1.O=C(O)/C=C/C(=O)O [CLEMASTINE FUMARATE]
100
13) C=CC(=O)Nc1cccc(C(=O)Nc2ccc(Nc3cc(-c4[nH]c(SC)nc4C)ccn3)cc2)c1
83
14) Cc1c(-c2ccc(O)cc2)n(Cc2ccc(OCCN3CCCCCC3)cc2)c2ccc(O)cc12
90
15) CN(C)CC#Cc1ccc(OCCCc2sc(N3CCc4cccc(C(=O)Nc5nc6ccccc6s5)c4C3)nc2C(=O)O)c(F)c1
63
16) COc1cc(-n2cnc3cc(-c4ccc(Cl)cc4)sc3c2=O)ccc1OCCN1CCCC1
75
17) Cc1nc(-c2cn3c(n2)-c2ccc(-c4cnn(C(C)(C)C(N)=O)c4)cc2OCC3)n(C(C)C)n1
8
18) CN1CCCC(n2nc(Cc3ccc(Cl)cc3)c3ccccc3c2=O)CC1.Cl (stereo not drawn) [AZELASTINE HYDROCHLORIDE]
100
19) Cc1nc(Nc2n[nH]c3c2CN(C(=O)N[C@H](CN(C)C)c2ccccc2)C3(C)C)c2sccc2n1
21
20) C[C@@H](NCCCc1cccc(C(F)(F)F)c1)c1cccc2ccccc12.Cl [CINACALCET HYDROCHLORIDE]
95
21) COc1ncc(-c2ccc3nccc(-c4ccnnc4)c3c2)cc1NS(=O)(=O)c1ccc(F)cc1F
97
22) OC1(c2ccc(Cl)cc2)CCN(Cc2c[nH]c3ccccc23)CC1
100
23) C=CC(=O)Nc1ccc2ncnc(Nc3ccc(OCc4cccc(F)c4)c(Cl)c3)c2c1.Cc1ccc(S(=O)(=O)O)cc1
82

====

- System: U2OS
- procedure-details: Multiplex assay against U2OS
- Format: toxicity, cell-based
- reported-conditions: human, 48 h, 10 µM, compound concentration 10 uM, replicate 2
List of Population Normal (%) values.
reported-endpoint: Population Normal (%)

1) CN(C)CC#Cc1ccc(OCCCc2sc(N3CCc4cccc(C(=O)Nc5nc6ccccc6s5)c4C3)nc2C(=O)O)c(F)c1 [A-1155463]
91
2) Cc1csc2c(N[C@@H](C)CN3CCN(S(=O)(=O)c4ccc(Cl)c(Cl)c4)CC3)ncnc12
92
3) Cc1cc(C)cc(-c2cnc3cc(Cl)c(-c4cccc(O)c4)cc3c2OCCCN)c1
82
4) Cn1cc(-c2[nH]c3cc(NC(=O)[C@H](N)C4CCCCC4)cc4c3c2C=NNC4=O)cn1
79
5) CN1CCN(c2ccc(OC(F)(F)F)c(Nc3ncc4c(n3)-c3c(c(C(N)=O)nn3CCO)CC4)c2)CC1 [ONVANSERTIB]
89
6) O=C1NCN(c2ccccc2)C12CCN(CCCOc1ccc(F)cc1)CC2 [SPIRAMIDE]
90

====

- Test system: HEK-293T
- procedure-details: Multiplex assay against HEK293T
- Type: toxicity, cell-based
- reported-conditions: human, 48 h, 1 µM, compound concentration 1 uM, replicate 2
List of Population Fragmented Nuclei (%) values.
reported-endpoint: Population Fragmented Nuclei (%)

1. CN1CCCC(n2nc(Cc3ccc(Cl)cc3)c3ccccc3c2=O)CC1.Cl (stereo not drawn) [AZELASTINE HYDROCHLORIDE]
7
2. OC1(c2ccc(Cl)cc2)CCN(Cc2c[nH]c3ccccc23)CC1
7
3. COc1ncc(-c2ccc3nccc(-c4ccnnc4)c3c2)cc1NS(=O)(=O)c1ccc(F)cc1F
7

====

- Tested on: Fibroblast
- procedure-details: Multiplex assay against human fibroblast
- Format: toxicity, cell-based
- reported-conditions: 48 h, 1 µM, compound concentration 1 uM, replicate 1
reported-endpoint: Population Fragmented Nuclei (%)

1. Cc1cc(C)cc(-c2cnc3cc(Cl)c(-c4cccc(O)c4)cc3c2OCCCN)c1
37
2. CN1CCN(c2ccc(OC(F)(F)F)c(Nc3ncc4c(n3)-c3c(c(C(N)=O)nn3CCO)CC4)c2)CC1
38
3. CN1CCC[C@@H]1CCO[C@](C)(c1ccccc1)c1ccc(Cl)cc1.O=C(O)/C=C/C(=O)O [CLEMASTINE FUMARATE]
46
4. CNc1nc(NCc2ccc(NS(C)(=O)=O)cc2Cl)cc(-c2ccccn2)n1
29

====

- Tested on: U2OS
- procedure-details: Multiplex assay against U2OS
- Assay type: toxicity, cell-based
- reported-conditions: human, 12 h, 1 µM, compound concentration 1 uM, replicate 1
reported-endpoint: Population Normal (%)

1) CN1CCC[C@@H]1CCO[C@](C)(c1ccccc1)c1ccc(Cl)cc1.O=C(O)/C=C/C(=O)O [CLEMASTINE FUMARATE]
88
2) CNc1nc(NCc2ccc(NS(C)(=O)=O)cc2Cl)cc(-c2ccccn2)n1
89
3) CN(C)C(=O)N[C@H]1CC[C@H](CCN2CCN(c3cccc(Cl)c3Cl)CC2)CC1.Cl [CARIPRAZINE HYDROCHLORIDE]
91
4) CC(C)NCC(O)COc1ccc(CCOCC2CC2)cc1.Cl (stereo not given) [BETAXOLOL HYDROCHLORIDE]
92
5) COc1cc(-n2cnc3cc(-c4ccc(Cl)cc4)sc3c2=O)ccc1OCCN1CCCC1
90
6) Cl.N#Cc1ccc2[nH]cc(CCCCN3CCN(c4ccc5oc(C(N)=O)cc5c4)CC3)c2c1 [VILAZODONE HYDROCHLORIDE]
90
7) C=CC(=O)Nc1cccc(C(=O)Nc2ccc(Nc3cc(-c4[nH]c(SC)nc4C)ccn3)cc2)c1
91
8) Cc1nc(-c2ccc(-c3ccc(C(=O)N4CCc5cc6c(cc54)C4(CCN(C)CC4)CO6)cc3)c(C)c2)no1 [SB-224289]
91
9) C[C@@H](NCCCc1cccc(C(F)(F)F)c1)c1cccc2ccccc12.Cl [CINACALCET HYDROCHLORIDE]
94
10) Cc1cc(C)cc(-c2cnc3cc(Cl)c(-c4cccc(O)c4)cc3c2OCCCN)c1
93
11) CN1CCCC(n2nc(Cc3ccc(Cl)cc3)c3ccccc3c2=O)CC1.Cl (stereo not given) [AZELASTINE HYDROCHLORIDE]
91
12) Cc1csc2c(N[C@@H](C)CN3CCN(S(=O)(=O)c4ccc(Cl)c(Cl)c4)CC3)ncnc12
91
13) COc1ncc(-c2ccc3nccc(-c4ccnnc4)c3c2)cc1NS(=O)(=O)c1ccc(F)cc1F [OMIPALISIB]
95
14) CC(C)(O)CNc1ncc(-c2ccnc(Nc3ccnc(Cl)c3)n2)c(CC2CC2)n1
96
15) C[C@@]1(C(=O)Nc2ccc(F)nc2)CCCN1c1nc(Nc2cc(C3CC3)n[nH]2)c2cccn2n1 [BMS-754807]
95
16) OC1(c2ccc(Cl)cc2)CCN(Cc2c[nH]c3ccccc23)CC1
90
17) NC(=O)Nc1cc(-c2cccc(F)c2)sc1C(=O)N[C@H]1CCCNC1 [AZD-7762]
96
18) Cc1nc(Nc2n[nH]c3c2CN(C(=O)N[C@H](CN(C)C)c2ccccc2)C3(C)C)c2sccc2n1 [PF-03758309]
97
19) CN(C)C(=O)/C(C#N)=C/c1ccc(-c2nc3cnc4[nH]ccc4c3n2C2CCCCC2)o1
91
20) CN(C)CC#Cc1ccc(OCCCc2sc(N3CCc4cccc(C(=O)Nc5nc6ccccc6s5)c4C3)nc2C(=O)O)c(F)c1 [A-1155463]
87
